Reported IC50 values are given for each entry in this list.
system tested: hPAD4 enzyme (Homo sapiens)
Sequence (Q9UM07 whole entry): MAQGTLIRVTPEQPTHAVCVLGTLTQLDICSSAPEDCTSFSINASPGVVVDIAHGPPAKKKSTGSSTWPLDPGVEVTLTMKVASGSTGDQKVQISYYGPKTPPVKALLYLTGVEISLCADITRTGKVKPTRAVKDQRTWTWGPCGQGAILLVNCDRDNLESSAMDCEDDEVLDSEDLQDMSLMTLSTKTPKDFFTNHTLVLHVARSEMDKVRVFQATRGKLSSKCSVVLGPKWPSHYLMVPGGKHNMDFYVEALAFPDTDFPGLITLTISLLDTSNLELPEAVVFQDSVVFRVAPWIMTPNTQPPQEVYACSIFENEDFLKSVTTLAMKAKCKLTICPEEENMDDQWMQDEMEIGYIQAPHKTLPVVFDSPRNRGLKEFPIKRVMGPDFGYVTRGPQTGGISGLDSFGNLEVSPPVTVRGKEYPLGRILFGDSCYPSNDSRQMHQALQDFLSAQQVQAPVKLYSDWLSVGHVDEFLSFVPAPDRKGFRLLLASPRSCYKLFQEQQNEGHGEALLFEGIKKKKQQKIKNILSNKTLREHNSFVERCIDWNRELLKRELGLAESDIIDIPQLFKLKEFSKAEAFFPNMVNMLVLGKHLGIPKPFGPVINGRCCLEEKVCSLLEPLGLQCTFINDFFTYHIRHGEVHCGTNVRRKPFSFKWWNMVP
assay name: RFMS Assay 1 (rapid-fire mass spectrum PAD4 inhibition assay, BAEE substrate)
Assay type: biochemical
condition label: 5 nM hPAD4 enzyme, 250 μM BAEE, 30 mins compound and enzyme preincubation at 37° C., 90 min enzyme/substrate reaction

Example entries and their recorded answers appear below.
compound	system tested	recorded measurement
Cn1c(-c2cc3cccc(OC(F)Cn4cncc4F)c3n2CC2CC2)nc2cc3c(nc21)CCN(C[C@H](N)CF)C3=O (single isomer, unassigned) [Example 75a]	hPAD4 enzyme (Homo sapiens)	≤ 0.01 µM
Cn1cc(CCOc2cccc3cc(-c4nc5cc6c(nc5n4C)CCN(C[C@H](N)CF)C6=O)n(CC4CC4)c23)cn1	hPAD4 enzyme (Homo sapiens)	≤ 0.01 µM
Cn1c(-c2cc3cccc(OCC(O)c4cnco4)c3n2CC2CC2)nc2cc3c(nc21)CCN(C[C@H](N)CF)C3=O (single isomer, unassigned) [Example 61b]	hPAD4 enzyme (Homo sapiens)	0.101 to 0.5 µM

Enquiry: Bench note: what IC50 did Cn1c(-c2cc3cccc(OC(F)Cn4ccnc4)c3n2CC2CC2)nc2cc3c(nc21)CCN(C[C@H](N)CF)C3=O (single isomer, unassigned) [Example 74a] show?
Return: ≤ 0.01 µM

Enquiry: Bench note: what IC50 did COc1cccc2cc(-c3nc4cc5c(nc4n3C)CCN(C[C@H](N)CF)C5=O)n(Cc3ccno3)c12 show?
Return: 0.011 to 0.1 µM

Enquiry: Bench note: what IC50 did COc1cccc2cc(-c3nc4cc5c(nc4n3C)CCN(C[C@H](N)CF)C5=O)n(CCOC(F)(F)F)c12 show?
Return: 0.101 to 0.5 µM

Enquiry: Bench note: what IC50 did Cn1c(-c2cc3cccc(OCCc4ccccn4)c3n2CC2CC2)nc2cc3c(nc21)CCN(C[C@H](N)CF)C3=O show?
Return: 0.101 to 0.5 µM

Enquiry: Bench note: what IC50 did C[C@@H](Cn1cncc1F)Oc1cccc2cc(-c3nc4cc5c(nc4n3C)CCN(C[C@H](N)CF)C5=O)n(CC3CC3)c12 show?
Return: 0.101 to 0.5 µM

Enquiry: Bench note: what IC50 did Cn1c(-c2cc3cccc(OCC(F)n4ccnc4)c3n2CC2CC2)nc2cc3c(nc21)CCN(C[C@H](N)CF)C3=O (single isomer, unassigned) [Example 79b] show?
Return: 0.011 to 0.1 µM

Enquiry: Bench note: what IC50 did C[C@@H](COc1cccc2cc(-c3nc4cc5c(nc4n3C)CCN(C[C@H](N)CF)C5=O)n(CC3CC3)c12)n1cnc(F)c1 show?
Return: ≤ 0.01 µM

Enquiry: Bench note: what IC50 did Cn1c(-c2cc3ccnc(OCCn4ccnc4)c3n2CC2CC2)nc2cc3c(nc21)CCN(C[C@H](N)CF)C3=O show?
Return: ≤ 0.01 µM

Enquiry: Bench note: what IC50 did Cn1c(-c2cc3cccc(CCCn4cnc(F)c4)c3n2CC2CC2)nc2cc3c(nc21)CCN(C[C@H](N)CF)C3=O show?
Return: 0.011 to 0.1 µM

Enquiry: Bench note: what IC50 did COC(=O)N1CC[C@@H](Oc2cccc3cc(-c4nc5cc6c(nc5n4C)CCN(C[C@H](N)CF)C6=O)n(CC4CC4)c23)C1 show?
Return: 0.011 to 0.1 µM

Enquiry: Bench note: what IC50 did Cn1c(-c2cc3cccc(OCCc4ccn[nH]4)c3n2CC2CC2)nc2cc3c(nc21)CCN(C[C@H](N)CF)C3=O show?
Return: ≤ 0.01 µM

Enquiry: Bench note: what IC50 did CC(COc1cccc2cc(-c3nc4cc5c(nc4n3C)CCN(C[C@H](N)CF)C5=O)n(CC3CC3)c12)c1cccnc1 (single isomer, unassigned) [Example 45b] show?
Return: ≤ 0.01 µM

###

Reported pIC50 values are given for each entry in this list.
system tested: UniProt:Q9UM07
assay name: RFMS Assay 1 (rapid-fire mass spectrum PAD4 inhibition assay, BAEE substrate)
Format: biochemical
condition label: 5 nM hPAD4 enzyme, 250 μM BAEE, 30 mins compound and enzyme preincubation at 37° C., 90 min enzyme/substrate reaction
Description: Compounds were solubilized in 100% DMSO to achieve a 10 mM compound concentration. Compound stock solutions were stored at RT. A series of dilutions were prepared in DMSO and mixed 8 times with 20 μL mixing volume. Final top concentration of compound in the assay is 50 μM. […] MRM transition of product and internal standard were monitored at m/z 424.5 to 350.4 and m/z 293 to 247 respectively. […]
pIC50: −log10 of the molar value.

Example entries and their recorded answers appear below.
molecule	recorded measurement
Cn1c(-c2cc3cccc(OCCc4ccon4)c3n2CC2CC2)nc2cc3c(nc21)CCN(C[C@H](N)CF)C3=O [Example 46]	≥ 8.00
CC(Oc1cccc2cc(-c3nc4cc5c(nc4n3C)CCN(C[C@H](N)CF)C5=O)n(CC3CC3)c12)c1cc[nH]n1 (single isomer, unassigned) [Example 49a]	7.00 to 7.96

// next entry
Enquiry: Bench note: what pIC50 did Cn1c(-c2cc3cccc(/C=C/Cn4cncc4F)c3n2CC2CC2)nc2cc3c(nc21)CCN(C[C@H](N)CF)C3=O [Example 98] show?
Return: 6.30 to 7.00

###

system tested: UniProt:Q9UM07
assay name: RFMS Assay 2 (rapid-fire mass spectrum PAD4 inhibition assay, peptide substrate)
Format: biochemical
condition label: 35 nM recombinant human PAD4, substrate TSTGGRQGSHH, room temperature for 30 minutes; read-out: human PAD4 (hPAD4) IC50, RFMS Assay 2
pIC50: −log10 of the molar value.
value type: pIC50

compound	system tested	pIC50
CC(Cc1cnco1)Oc1cc(F)cc2cc(-c3nc4cc5c(nc4n3C)CCN(C[C@H](N)CF)C5=O)n(CC3CC3)c12 (single isomer, unassigned) [Example 64]	UniProt:Q9UM07	6.30 to 7.00

Enquiry: Notebook entry, UniProt:Q9UM07 assay: pIC50 of COc1c(F)ccc2cc(-c3nc4cc5c(nc4n3C)CCN(C[C@H](N)CF)C5=O)n(Cc3ccno3)c12 [Example 23] = ?
Return: 6.00 to 6.30

Enquiry: Notebook entry, UniProt:Q9UM07 assay: pIC50 of COc1cccc2cc(-c3nc4cc5c(nc4n3C)CCN(C[C@H](N)CF)C5=O)n(CC3(F)CC3)c12 [Example 15] = ?
Return: 6.30 to 7.00

Enquiry: Notebook entry, UniProt:Q9UM07 assay: pIC50 of COCCn1c(-c2nc3cc4c(nc3n2C)CCN(C[C@H](N)CF)C4=O)cc2cccc(OC)c21 [Example 2] = ?
Return: < 6.00

Enquiry: Notebook entry, UniProt:Q9UM07 assay: pIC50 of Cn1c(-c2cc3ccnc(OCCn4ccnc4)c3n2CC2CC2)nc2cc3c(nc21)CCN(C[C@H](N)CF)C3=O [Example 84] = ?
Return: 7.00 to 7.96

Enquiry: Notebook entry, UniProt:Q9UM07 assay: pIC50 of [2H]C([2H])(Oc1cccc2cc(-c3nc4cc5c(nc4n3C)CCN(C[C@H](N)CF)C5=O)n(CC3CC3)c12)C([2H])([2H])n1ccnc1 [Example 95] = ?
Return: 7.00 to 7.96
